TARGET SYSTEM: LDB3, O75112
Sequence (O75112 1-94): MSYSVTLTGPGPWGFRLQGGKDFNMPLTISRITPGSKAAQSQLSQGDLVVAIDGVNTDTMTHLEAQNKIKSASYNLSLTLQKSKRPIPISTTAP
ASSAY PROCEDURE: holdup assay
Set-up: key: below the threshold = too weak to quantify, mostly under pKd 3.1 to 4
MEASUREMENT SETUP: plain residues with an end cap or a label only (N-terminal biotin on a linker: ado-ado)
VALUE KIND: pKd

# pKd (binder: AKPSRISTVV [IQSEC2, Q5JU85] ) is below the threshold

# pKd (binder: QSLNRMEYIV [JAG1, P78504] ) is below the threshold

# pKd (binder: QPCFNKLFPL [LPXN, O60711] ) is below the threshold

# pKd (binder: QSPANIYYKV [EFNB1, P52799] ) is below the threshold
